Where do the numbers come from? From ChEMBL document CHEMBL6182935.

# test: Terminal half life in overnight-fasted male Sprague-Dawley rat at 150 mg/kg, po measured up to 12 hrs by HPLC analysis
# Assay type: ADME, organism-based
# stated-conditions: in vivo, read-out: beta t1/2 (converted)
measured-attribute: half-life

INSERT INTO assay_data (compound, measured_attribute, result) VALUES
  ('COc1cc([C@@H]2Oc3cc([C@H]4Oc5cc(O)cc(O)c5C(=O)[C@@H]4O)ccc3OC2CS)ccc1O (some centres not stated)', 'half-life', '1.55 h');

Now take the following compound into account.
[ask] Name the reported half-life value associated with the compound COc1cc([C@@H]2Oc3cc([C@H]4Oc5cc(O)cc(O)c5C(=O)[C@@H]4O)ccc3OC2CO)ccc1O (some centres not stated)
[reply] 2.45 h

###

// reported solubility at 10 min per item
# test: Solubility in water incubated for 10 mins
# Type: physicochemical
A number alone suffices; assume µg/mL.

INSERT INTO assay_data (molecule, measured_attribute, number) VALUES
  ('COc1cc([C@@H]2Oc3cc([C@H]4Oc5cc(O)cc(O)c5C(=O)[C@@H]4O)ccc3OC2CO)ccc1O (some centres undefined)', 'solubility at 10 min', 140),
  ('COc1cc([C@@H]2Oc3cc([C@H]4Oc5cc(O)cc(O)c5C(=O)[C@@H]4O)ccc3OC2CSC(C)=O)ccc1O (some centres undefined)', 'solubility at 10 min', 300),
  ('COc1cc(C2Oc3cc([C@H]4Oc5cc(O)cc(O)c5C(=O)[C@@H]4O)ccc3OC2CSSCC2Oc3ccc([C@H]4Oc5cc(O)cc(O)c5C(=O)[C@@H]4O)cc3O[C@H]2c2ccc(O)c(OC)c2)ccc1O (single isomer, unassigned)', 'solubility at 10 min', 190);

Now take the following molecule into account.
[ask] Name the reported solubility at 10 min value associated with the molecule COc1cc([C@@H]2Oc3cc([C@H]4Oc5cc(O)cc(O)c5C(=O)[C@@H]4O)ccc3OC2CS)ccc1O (some centres undefined)
[reply] 250

###

# test: Tmax in overnight-fasted male Sprague-Dawley rat at 150 mg/kg, po measured up to 12 hrs by HPLC analysis
# Format: ADME, organism-based
# stated-conditions: in vivo
// reported Tmax per item
A number alone suffices; assume h.

INSERT INTO assay_data (compound, number) VALUES
  ('COc1cc([C@@H]2Oc3cc([C@H]4Oc5cc(O)cc(O)c5C(=O)[C@@H]4O)ccc3OC2CO)ccc1O (some centres not stated)', 1.02);

Now take the following compound into account.
[ask] Name the reported Tmax value associated with the compound COc1cc([C@@H]2Oc3cc([C@H]4Oc5cc(O)cc(O)c5C(=O)[C@@H]4O)ccc3OC2CS)ccc1O (some centres not stated)
[reply] 1.99

###

# test: Inhibition of lipid peroxidation in egg yolk (unknown origin) preheated with compound and FeSO4 for 15 mins followed by TCA/TBA addition measured after 15 mins by absorbance based assay
# Format: functional, tissue-based
measured-attribute: pIC50
Would you please state pIC50, meaning minus log10 of the concentration in mol/L, as a bare number?

INSERT INTO results (compound, number) VALUES
  ('COc1cc([C@@H]2Oc3cc([C@H]4Oc5cc(O)cc(O)c5C(=O)[C@@H]4O)ccc3OC2CSC(C)=O)ccc1O (some centres undefined)', 4.62),
  ('COc1cc(C2Oc3cc([C@H]4Oc5cc(O)cc(O)c5C(=O)[C@@H]4O)ccc3OC2CSSCC2Oc3ccc([C@H]4Oc5cc(O)cc(O)c5C(=O)[C@@H]4O)cc3O[C@H]2c2ccc(O)c(OC)c2)ccc1O (single isomer, unassigned)', 4.54);

Now take the following compound into account.
[ask] Name the reported pIC50 value associated with the compound COc1cc([C@@H]2Oc3cc([C@H]4Oc5cc(O)cc(O)c5C(=O)[C@@H]4O)ccc3OC2CS)ccc1O (some centres undefined)
[reply] 4.38
